Could you please report measured Mean (RFU/s) for the items listed next?
Target: Chymotrypsin (Bos taurus)
Construct: purchased Sigma-Aldrich
Assay: Chymotrypsin inhibition, fluorogenic substrate assay (Suc-Ala-Ala-Pro-Phe-AMC)
Assay type: biochemical
Conditions: Chymotrypsin; inhibitor concentration 3000 nM; 40 min pre-incubation
Number only, in RFU/s; omit the unit.

Form field Mean (RFU/s), entry CC=C1NC(=O)[C@@H](NC(=O)[C@@H](NC(=O)[C@@H]2CCCN2C(=O)CCC)[C@@H](C)OC(=O)C2CCCN2C(=O)CCC)[C@@H](C)OC(=O)[C@H](C(C)C)NC(=O)[C@H](Cc2ccc(O)cc2)N(C)C(=O)[C@H](CC(C)C)N2C(=O)[C@H](CC[C@H]2O)NC1=O (stereo partly drawn) [Rivulariapeptolide 1121, rivulariapeptolide 1121] : 0

Form field Mean (RFU/s), entry C/C=C1\NC(=O)[C@@H](NC(=O)[C@@H](NC(=O)[C@H](C)NC(=O)CCC)[C@@H](C)O)[C@@H](C)OC(=O)[C@H](C(C)C)NC(=O)[C@H](Cc2ccc(O)cc2)N(C)C(=O)[C@H](Cc2ccccc2)N2C(=O)[C@H](CC[C@H]2O)NC1=O [Molassamide, molassamide] : 0.9597

Form field Mean (RFU/s), entry CCCC(=O)N1CCCC1C(=O)NC(C(=O)NC1C(=O)NC(CC(C)C)C(=O)NC2CCC(O)N(C2=O)C(Cc2ccccc2)C(=O)N(C)C(Cc2ccc(O)cc2)C(=O)NC(C(C)C)C(=O)OC1C)C(C)OC(=O)C1CCCN1C(=O)CCC (stereo not drawn) [Rivulariapeptolide 1185, rivulariapeptolide 1185] : 0
